Would you mind telling me the reported EC50 of each entry?
# Test system: CCRF-CEM
# test: Effective concentration required to inhibit HIV-2 induced cytopathicity in human CEM cell lines
# Assay type: functional, cell-based

Give the reported EC50 for this compound. CCOC(=O)P(=O)(O)OCCCn1c(=O)c(C)cn([C@@H]2O[C@H](CO[Si](C)(C)C(C)(C)C)[C@@]3(OS(=O)(=O)C=C3N)[C@H]2O[Si](C)(C)C(C)(C)C)c1=O > 50 µM

Give the reported EC50 for this compound. O=C(O)P(=O)(O)O 105 µM

Give the reported EC50 for this compound. COC(=O)P(=O)(OC)OCCCn1c(=O)c(C)cn([C@@H]2O[C@H](CO[Si](C)(C)C(C)(C)C)[C@@]3(OS(=O)(=O)C=C3N)[C@H]2O[Si](C)(C)C(C)(C)C)c1=O (some centres undefined) > 50 µM

Give the reported EC50 for this compound. Cc1cn([C@@H]2O[C@H](CO[Si](C)(C)C(C)(C)C)[C@@]3(OS(=O)(=O)C=C3N)[C@H]2O[Si](C)(C)C(C)(C)C)c(=O)n(CCCOP(=O)(O)C(=O)O)c1=O > 50 µM

----------
Would you mind telling me the reported logP of each entry?
# test: Partition coefficient (logP)
# Assay type: physicochemical
# experimental setup: octanol/water
Answer as a number with no unit attached.

Give the reported logP for this molecule. O=C(O)P(=O)(O)O [FOSCARNET] -0.56

Give the reported logP for this molecule. Cc1cn([C@@H]2O[C@H](CO[Si](C)(C)C(C)(C)C)[C@@]3(OS(=O)(=O)C=C3N)[C@H]2O[Si](C)(C)C(C)(C)C)c(=O)n(CCCO)c1=O 2.26

Give the reported logP for this molecule. CCOC(=O)P(=O)(O)OCCCn1c(=O)c(C)cn([C@@H]2O[C@H](CO[Si](C)(C)C(C)(C)C)[C@@]3(OS(=O)(=O)C=C3N)[C@H]2O[Si](C)(C)C(C)(C)C)c1=O 4.01

Give the reported logP for this molecule. Cc1cn([C@@H]2O[C@H](CO[Si](C)(C)C(C)(C)C)[C@@]3(OS(=O)(=O)C=C3N)[C@H]2O[Si](C)(C)C(C)(C)C)c(=O)n(CCCOP(=O)(O)C(=O)OCc2ccccc2)c1=O 5.02

Give the reported logP for this molecule. Cc1cn([C@@H]2O[C@H](CO[Si](C)(C)C(C)(C)C)[C@@]3(OS(=O)(=O)C=C3N)[C@H]2O[Si](C)(C)C(C)(C)C)c(=O)n(CCCOP(=O)(O)C(=O)O)c1=O 0.63

Give the reported logP for this molecule. COC(=O)P(=O)(OC)OCCCn1c(=O)c(C)cn([C@@H]2O[C@H](CO[Si](C)(C)C(C)(C)C)[C@@]3(OS(=O)(=O)C=C3N)[C@H]2O[Si](C)(C)C(C)(C)C)c1=O (some centres not stated) 7.12

Give the reported logP for this molecule. COC(=O)P(=O)(O)OCCCn1c(=O)c(C)cn([C@@H]2O[C@H](CO[Si](C)(C)C(C)(C)C)[C@@]3(OS(=O)(=O)C=C3N)[C@H]2O[Si](C)(C)C(C)(C)C)c1=O 4.01

----------
# System: CCRF-CEM
# test: Effective concentration required to inhibit HIV-1 induced cytopathicity in human CEM cell lines
# Assay type: functional, cell-based
pEC50: −log10 of the molar value.
yes means recorded pEC50 is 6 or above; no means it is below 6.

Is the recorded value of pEC50 equal to or greater than 6 for this molecule? CCOC(=O)P(=O)(O)OCCCn1c(=O)c(C)cn([C@@H]2O[C@H](CO[Si](C)(C)C(C)(C)C)[C@@]3(OS(=O)(=O)C=C3N)[C@H]2O[Si](C)(C)C(C)(C)C)c1=O no

Is the recorded value of pEC50 equal to or greater than 6 for this molecule? COC(=O)P(=O)(O)OCCCn1c(=O)c(C)cn([C@@H]2O[C@H](CO[Si](C)(C)C(C)(C)C)[C@@]3(OS(=O)(=O)C=C3N)[C@H]2O[Si](C)(C)C(C)(C)C)c1=O no

Is the recorded value of pEC50 equal to or greater than 6 for this molecule? Cc1cn([C@@H]2O[C@H](CO[Si](C)(C)C(C)(C)C)[C@@]3(OS(=O)(=O)C=C3N)[C@H]2O[Si](C)(C)C(C)(C)C)c(=O)n(CCCOP(=O)(O)C(=O)OCc2ccccc2)c1=O no

Is the recorded value of pEC50 equal to or greater than 6 for this molecule? COC(=O)P(=O)(OC)OCCCn1c(=O)c(C)cn([C@@H]2O[C@H](CO[Si](C)(C)C(C)(C)C)[C@@]3(OS(=O)(=O)C=C3N)[C@H]2O[Si](C)(C)C(C)(C)C)c1=O (stereo partly specified) yes

Is the recorded value of pEC50 equal to or greater than 6 for this molecule? O=C(O)P(=O)(O)O no

Is the recorded value of pEC50 equal to or greater than 6 for this molecule? Cc1cn([C@@H]2O[C@H](CO[Si](C)(C)C(C)(C)C)[C@@]3(OS(=O)(=O)C=C3N)[C@H]2O[Si](C)(C)C(C)(C)C)c(=O)n(CCCOP(=O)(O)C(=O)O)c1=O yes

----------
# measured on: Human immunodeficiency virus type 1 reverse transcriptase (Human immunodeficiency virus 1, UniProt Q72547)
# test: Inhibitory concentration against wild type HIV-1/138Lys reverse transcriptase (RT) using [3H]dGTP as a radioligand
Would you mind telling me the reported pIC50 of each entry?
To interpret pIC50, take it as minus log10 of a concentration measured in moles per litre.

Give the reported pIC50 for this molecule. Cc1cn([C@@H]2O[C@H](CO[Si](C)(C)C(C)(C)C)[C@@]3(OS(=O)(=O)C=C3N)[C@H]2O[Si](C)(C)C(C)(C)C)c(=O)n(CCCOP(=O)(O)C(=O)OCc2ccccc2)c1=O 3.51

Give the reported pIC50 for this molecule. CCOC(=O)P(=O)(O)OCCCn1c(=O)c(C)cn([C@@H]2O[C@H](CO[Si](C)(C)C(C)(C)C)[C@@]3(OS(=O)(=O)C=C3N)[C@H]2O[Si](C)(C)C(C)(C)C)c1=O 3.53

Give the reported pIC50 for this molecule. COC(=O)P(=O)(O)OCCCn1c(=O)c(C)cn([C@@H]2O[C@H](CO[Si](C)(C)C(C)(C)C)[C@@]3(OS(=O)(=O)C=C3N)[C@H]2O[Si](C)(C)C(C)(C)C)c1=O 3.40

Give the reported pIC50 for this molecule. Cc1cn([C@@H]2O[C@H](CO[Si](C)(C)C(C)(C)C)[C@@]3(OS(=O)(=O)C=C3N)[C@H]2O[Si](C)(C)C(C)(C)C)c(=O)n(CCCOP(=O)(O)C(=O)O)c1=O 3.36

----------
# measured on: Human immunodeficiency virus type 1 reverse transcriptase (Human immunodeficiency virus 1)
# test: Inhibitory concentration against wild type HIV-1 reverse transcriptase (RT) using poly rC.dG as the template or primer
reported metric: pIC50
To interpret pIC50, take it as minus log10 of a concentration measured in moles per litre.

Give the reported pIC50 for this molecule. Cc1cn([C@@H]2O[C@H](CO[Si](C)(C)C(C)(C)C)[C@@]3(OS(=O)(=O)C=C3N)[C@H]2O[Si](C)(C)C(C)(C)C)c(=O)n(C)c1=O 5.51

Give the reported pIC50 for this molecule. CCOC(=O)P(=O)(O)OCCCn1c(=O)c(C)cn([C@@H]2O[C@H](CO[Si](C)(C)C(C)(C)C)[C@@]3(OS(=O)(=O)C=C3N)[C@H]2O[Si](C)(C)C(C)(C)C)c1=O 5.20

Give the reported pIC50 for this molecule. COC(=O)P(=O)(OC)OCCCn1c(=O)c(C)cn([C@@H]2O[C@H](CO[Si](C)(C)C(C)(C)C)[C@@]3(OS(=O)(=O)C=C3N)[C@H]2O[Si](C)(C)C(C)(C)C)c1=O (some centres not stated) 4.96

Give the reported pIC50 for this molecule. Cc1cn([C@@H]2O[C@H](CO[Si](C)(C)C(C)(C)C)[C@@]3(OS(=O)(=O)C=C3N)[C@H]2O[Si](C)(C)C(C)(C)C)c(=O)n(CCCOP(=O)(O)C(=O)O)c1=O 5.43

Give the reported pIC50 for this molecule. Cc1cn([C@@H]2O[C@H](CO[Si](C)(C)C(C)(C)C)[C@@]3(OS(=O)(=O)C=C3N)[C@H]2O[Si](C)(C)C(C)(C)C)c(=O)n(CCCO)c1=O 5.09

Give the reported pIC50 for this molecule. Cc1cn([C@@H]2O[C@H](CO[Si](C)(C)C(C)(C)C)[C@@]3(OS(=O)(=O)C=C3N)[C@H]2O[Si](C)(C)C(C)(C)C)c(=O)n(CCCOP(=O)(O)C(=O)OCc2ccccc2)c1=O 5.42

Give the reported pIC50 for this molecule. COC(=O)P(=O)(O)OCCCn1c(=O)c(C)cn([C@@H]2O[C@H](CO[Si](C)(C)C(C)(C)C)[C@@]3(OS(=O)(=O)C=C3N)[C@H]2O[Si](C)(C)C(C)(C)C)c1=O 5.33
